assay system: human NAMPT (Homo sapiens (Human), UniProt P43490)
Sequence (P43490 whole entry): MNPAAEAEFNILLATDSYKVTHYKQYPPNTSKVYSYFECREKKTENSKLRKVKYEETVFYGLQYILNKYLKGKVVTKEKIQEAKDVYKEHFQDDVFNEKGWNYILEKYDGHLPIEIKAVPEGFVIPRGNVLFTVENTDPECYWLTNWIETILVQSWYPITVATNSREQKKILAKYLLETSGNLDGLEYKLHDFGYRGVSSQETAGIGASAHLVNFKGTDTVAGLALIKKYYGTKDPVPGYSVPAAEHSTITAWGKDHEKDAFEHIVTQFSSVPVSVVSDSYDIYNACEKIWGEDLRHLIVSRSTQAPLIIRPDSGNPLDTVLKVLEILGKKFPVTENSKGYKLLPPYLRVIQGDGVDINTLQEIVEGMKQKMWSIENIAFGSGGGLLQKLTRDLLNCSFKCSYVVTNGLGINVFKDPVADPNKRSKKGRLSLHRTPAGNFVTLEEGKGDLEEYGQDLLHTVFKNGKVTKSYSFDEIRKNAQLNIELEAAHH
assay notes: NMN fluorescence biochemical assay (human recombinant NAMPT enzyme assay)
outcome measure: AC1.4 Human (µM)
Supply the numeric figure in µM, leaving out any unit text.

# get_value(readout= AC1.4 Human, system= human NAMPT (Homo sapiens (Human), UniProt P43490)) for Cc1nn(C)c(C(=O)N(C)Cc2ccc(NC(=O)OCc3ccc(Cl)cc3)cc2)c1C [Compound 127]
1.00

Thanks! And CO[C@H]1CCCN(C(=O)Cc2ccc(NC(=O)OCc3ccc(Cl)cc3)cc2)C1 [Compound 161] ?
1.33

Thanks! And COc1cnn(C)c1C(=O)NCc1ccc(NC(=O)OCc2ccc(Cl)cc2)cc1 [Compound 135] ?
1.07

Thanks! And Cc1cnc(C(=O)NCc2ccc(NC(=O)OCc3ccc(Cl)cc3)cc2)cn1 [Compound 136] ?
1.09

Cited source for all entries: patent US20240279215A1
